Recorded cell count by entry
procedure_details: GPR55 agonists via beta-arrestin recruitment, primary screen, imaging, U2OS cells, beta-arrestin-GFP redistribution (AID 1961);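 also: U2OS osteosarcoma cells stably expressing GPR55 and beta-arrestin-GFP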
study_conditions: measured here: cytotoxicity, cells analyzed, at 10 µM
About 140 (0.048%) of roughly 290,000 compounds were called active. Only a selection was taken, and actives are over-represented in it overall.
Please respond with the number in cells and leave the unit unwritten.

Cc1nn2c(C(F)(F)F)c3c(nc2c1-c1ccccc1)CCC3    390
Cc1ccc2oc(=O)cc(CN3CCN(Cc4ccccc4)CC3)c2c1    335
O=[N+]([O-])c1ccc(/C=C/C2=NN(c3ccccc3)C(c3ccco3)C2)o1 (stereo not given)    231

compound COc1cccc(NS(=O)(=O)c2ccc3c(c2)NC(=O)C(C)C(=O)N3)c1 (stereo not given) , cell count observed: 385

compound C(=C\c1ccco1)/C1=NN(c2ccccc2)C(c2ccco2)C1 (stereo not given) , cell count observed: 324

###

system_under_test: G-protein coupled receptor 55 (Homo sapiens)
procedure_details: GPR55 agonists via beta-arrestin recruitment, primary screen, imaging, U2OS cells, beta-arrestin-GFP redistribution (AID 1961);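 also: U2OS osteosarcoma cells stably expressing GPR55 and beta-arrestin-GFP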;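 as to activation: plate controls were DMSO negative control for no effect and LPI positive control for full effect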
study_conditions: at 10 µM, stronger effect = higher value
The campaign covered roughly 290,000 compounds. About 140 (0.048%) were called active. Only a selection was taken, and actives are over-represented in it overall.
measured_metric: activation (%)
Please respond with the number in % and leave the unit unwritten.

Cc1ccc(C(=O)N2CCN(c3ccccn3)CC2)cc1Cl    -0.2

molecule Cn1c(SCC(=O)NNC(=O)Nc2ccc(Cl)cc2)nnc1-c1ccccc1 , activation observed: -0.1

molecule CC1=NNC(=O)/C1=C\c1cn(-c2ccccc2)nc1-c1ccccc1 , activation observed: 68.5

molecule Cc1nc(Cl)sc1C(=O)Nc1cc(F)cc(F)c1 , activation observed: -0.2

molecule Cc1ccc(C(=O)N2CCN(c3ccccn3)CC2)cc1C , activation observed: -0.1

molecule COc1cc(/C=C(\NC(=O)c2ccccc2)C(=O)NCC(=O)O)c([N+](=O)[O-])cc1OC , activation observed: -0.1

molecule O=C(NCCN1CCN(C(=O)c2ccc(F)cc2)CC1)c1ccc(F)cc1 , activation observed: 0.2

molecule Cc1ccc(S(=O)(=O)NC2=C(N3CCN(c4ccccc4F)CC3)C(=O)c3ccccc3C2=O)cc1 , activation observed: -0.1

molecule Cc1ccc2c(C)c(C(=O)N3CCN(Cc4ccc5c(c4)OCO5)CC3)oc2c1C , activation observed: -0.1

molecule CCOC(=O)N1CCN(C(=O)c2ccc3c(c2)N(Cc2cccc(Cl)c2)C(=O)c2ccccc2S3=O)CC1 (configuration not stated) , activation observed: 21.2

molecule O=C(OCc1cc(=O)n2c(n1)sc1ccccc12)c1ccc2c(=O)n3c(nc2c1)CCC3 , activation observed: -0.1

###

procedure_details: GPR55 agonists via beta-arrestin recruitment, primary screen, imaging, U2OS cells, beta-arrestin-GFP redistribution (AID 1961);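 also: U2OS osteosarcoma cells stably expressing GPR55 and beta-arrestin-GFP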
study_conditions: measured here: cytotoxicity, cells analyzed, at 10 µM
Screen size: about 290,000 compounds; about 140 (0.048%) were called active. What follows is part of a selection rich in actives, with near analogues and random picks from the rest.
Recorded cell count by entry
Please respond with the number in cells and leave the unit unwritten.

These recorded examples may help you get a feel for the data.
O=C(NCc1ccc(F)cc1)C(=O)NCC1OCCCN1S(=O)(=O)c1cccs1 (stereo unspecified)    348
COc1cc(C2CC(c3ccccc3)=NN2c2ccccc2)ccc1OCC(=O)O (stereo unspecified)    329
CCN1CCCC1CNCc1cc(OC)c(OC)c(OC)c1 (stereo unspecified)    313
COc1ccc(Nc2ncc3c(n2)CC(c2ccccc2)CC3=O)cc1 (stereo unspecified)    306
Cc1cccc(CC(=O)N2CCOCC2)c1    411

molecule COc1ccc(Nc2nc(Cl)c(C=O)s2)cc1 , cell count observed: 273

molecule COc1ccc(C2CC(c3ccc(F)cc3)=NN2c2ccccc2)cc1OC (stereo unspecified) , cell count observed: 391

molecule CCc1ccccc1NC(=O)c1ccc(-c2csc(C)n2)cc1 , cell count observed: 398

molecule O=C(O)c1ccc(NC(=O)c2ccc3c(c2)C(=O)N(c2ccccc2)C3=O)cc1 , cell count observed: 374

molecule N#Cc1c2n(c(=S)n(-c3ccc(F)cc3)c1=O)CCCCC2 , cell count observed: 250

molecule FC(F)(F)c1cc(C(F)(F)F)c2ccc(N/N=C/c3cccc(Cl)c3)nc2n1 , cell count observed: 390

###

procedure_details: GPR55 agonists via beta-arrestin recruitment, primary screen, imaging, U2OS cells, beta-arrestin-GFP redistribution (AID 1961);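 also: U2OS osteosarcoma cells stably expressing GPR55 and beta-arrestin-GFP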
study_conditions: measured here: cytotoxicity, cells analyzed, at 10 µM
About 140 (0.048%) of roughly 290,000 compounds were called active. Only a selection was taken, and actives are over-represented in it overall.
measured_metric: cell count (cells)
Please respond with the number in cells and leave the unit unwritten.

These recorded examples may help you get a feel for the data.
O=c1oc2ccccc2c(NCc2ccc(Cl)cc2)c1[N+](=O)[O-]    384
COCc1[nH]c(=S)[nH]c(=O)c1C    339
CCN(CC)S(=O)(=O)c1ccc(N2CCOCC2)c(NCC(=O)Nc2ccc(F)cc2)c1    259
CC(C)OCCCNC(=O)Cc1ccc(F)cc1    376
COc1cc(/C=C/C(=O)Oc2coc(CSc3ncccn3)cc2=O)cc(OC)c1OC    281
COc1ccc(-c2cc(C(F)(F)F)nc(SCC(=O)Nc3ccc4c(c3)OCO4)n2)cc1    399
O=C(CSc1nnc(-c2ccc(F)cc2)o1)NC1CCCC1    360
Cc1ccc(/C=N/Nc2ccc3c(C(F)(F)F)cc(C(F)(F)F)nc3n2)cc1    447

compound CCOC(=O)C(CC)(CCC(=O)OC)c1csc(Nc2ccccc2O)n1 (stereo unspecified) , cell count observed: 367

compound COc1cc2c3nnc(-c4ccc(F)cc4)c-3cn(Cc3ccc(F)cc3)c2cc1OC , cell count observed: 348

compound O=S(=O)(c1cccc(-c2nn3c(-c4ccncc4)nnc3s2)c1)N1CCOCC1 , cell count observed: 342

###

Recorded cell count by entry
procedure_details: GPR55 agonists via beta-arrestin recruitment, primary screen, imaging, U2OS cells, beta-arrestin-GFP redistribution (AID 1961);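 also: U2OS osteosarcoma cells stably expressing GPR55 and beta-arrestin-GFP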
study_conditions: measured here: cytotoxicity, cells analyzed, at 10 µM
Among all 290,000 compounds or so, about 140 (0.048%) were called active. Only a selection was taken, and actives are over-represented in it overall.
Please respond with the number in cells and leave the unit unwritten.

Cc1ccc(C)c(CN2C(=O)c3ccccc3S(=O)(=O)c3ccc(C(=O)N4CCN(C)CC4)cc32)c1    338

molecule CCOC(=O)N1CCN(C(=O)c2ccc3c(c2)N(Cc2cccc(Cl)c2)C(=O)c2ccccc2S3=O)CC1 (centres undefined) , cell count observed: 331

molecule COc1ccccc1NC(=O)CSCc1ccc([N+](=O)[O-])cc1 , cell count observed: 415

molecule Cc1ccc(NC(=S)Nc2ccc(S(=O)(=O)Nc3ncccn3)cc2)c(C)c1 , cell count observed: 327

###

system_under_test: G-protein coupled receptor 55 (Homo sapiens)
procedure_details: GPR55 agonists via beta-arrestin recruitment, primary screen, imaging, U2OS cells, beta-arrestin-GFP redistribution (AID 1961);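 also: U2OS osteosarcoma cells stably expressing GPR55 and beta-arrestin-GFP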
study_conditions: at 10 µM
About 140 (0.048%) of roughly 290,000 compounds were called active.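 The calls were made as follows: active = activation above 40% with more than 50 cells counted in the well; inconclusive = wells holding fewer than 50 cells, flagged as toxic or sparse; inactive = the rest.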 The sample holds actives, similar compounds and a random draw of the others, so the mix is not that of the screen.
Hi there, use one of these labels in your reply, thanks! active, inactive

Cc1ccc(SC[C@H](CC(C)C)N2CCN(CCc3ccccc3)CCC2=O)cc1    active

Task: What did this assay record as the result for O=C(CC1CCCCC1)Nc1ccccc1-c1ccccc1 ?
Result: inactive

###

system_under_test: G-protein coupled receptor 55 (Homo sapiens) (UniProt Q9Y2T6)
Sequence (Q9Y2T6 whole entry, looked up): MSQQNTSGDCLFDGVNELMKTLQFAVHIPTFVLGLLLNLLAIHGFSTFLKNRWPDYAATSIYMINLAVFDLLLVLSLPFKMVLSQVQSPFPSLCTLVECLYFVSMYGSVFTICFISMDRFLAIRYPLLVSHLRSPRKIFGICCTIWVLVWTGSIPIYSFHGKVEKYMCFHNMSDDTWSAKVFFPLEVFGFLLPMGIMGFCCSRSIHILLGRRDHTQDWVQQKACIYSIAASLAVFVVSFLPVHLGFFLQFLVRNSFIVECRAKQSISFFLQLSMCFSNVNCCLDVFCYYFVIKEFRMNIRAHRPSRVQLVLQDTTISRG
procedure_details: GPR55 agonists via beta-arrestin recruitment, primary screen, imaging, U2OS cells, beta-arrestin-GFP redistribution (AID 1961);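 also: U2OS osteosarcoma cells stably expressing GPR55 and beta-arrestin-GFP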
study_conditions: at 10 µM
In all, about 290,000 compounds went through this assay and about 140 (0.048%) were called active.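 How the source made its calls: active means activation above 40% with more than 50 cells counted in the well; inconclusive means wells holding fewer than 50 cells, flagged as toxic or sparse; inactive means the rest.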 The sample as a whole holds a higher share of actives than the screen did.
Hi there, use one of these labels in your reply, thanks! T (active), F (inactive)

Task: What did this assay record as the result for CCCN1C(=O)/C(=C2/C=Cc3ccccc3N2CC)SC1=S ?
Result: F

Task: What did this assay record as the result for COc1ccc(N2CCN(C(=O)c3cc(=O)c4ccc(C)cc4o3)CC2)cc1 ?
Result: F

Task: What did this assay record as the result for CCOc1ccc(C=NCC(O)c2ccccc2)cc1 (stereo not drawn) ?
Result: F

Task: What did this assay record as the result for COc1ccc(NC(=O)NC2CCCCCCC2)c(OC)c1 ?
Result: F

Task: What did this assay record as the result for O=S(=O)(c1cccc(-c2nn3c(-c4ccncc4)nnc3s2)c1)N1CCOCC1 ?
Result: F

###

procedure_details: GPR55 agonists via beta-arrestin recruitment, primary screen, imaging, U2OS cells, beta-arrestin-GFP redistribution (AID 1961);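 also: U2OS osteosarcoma cells stably expressing GPR55 and beta-arrestin-GFP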
study_conditions: measured here: cytotoxicity, cells analyzed, at 10 µM
In all, about 290,000 compounds went through this assay and about 140 (0.048%) were called active. Only a selection was taken, and actives are over-represented in it overall.
Recorded cell count by entry
Please respond with the number in cells and leave the unit unwritten.

These recorded examples may help you get a feel for the data.
CCCc1nnc2n1N=C(c1ccc(-c3cc(Cl)ccc3Cl)o1)CS2    356
Cc1ccc(S(=O)(=O)NC2=C(N3CCN(c4ccccc4F)CC3)C(=O)c3ccccc3C2=O)cc1    421
CCOc1cccc(-c2nnc3n2N=C(c2cc(OC)ccc2OC)CS3)c1    276
CCc1nnc2n1N=C(c1ccc(Cl)cc1Cl)CS2    325
COc1cc(/C=C/c2cc(OC(C)=O)c3ccccc3n2)c(OC(C)=O)c([N+](=O)[O-])c1    366

Now consider the entry below.
molecule CCCc1nnc2n1N=C(c1ccc(C)cc1)CS2 , cell count observed: 336
